target: LK35.2-hPD-L1 cells / PE-labeled PD-1-Ig (Homo sapiens); construct: expressed in transfected cells; host or cells: LK35.2 mouse B cell line; test: LK35.2-hPD-L1 cell binding high-content screening assay; type: cell-based; conditions: cluster symbol; cell line of CBA not given (LK35.2-hPD-L1 or 293T-hPD-L1); read-out: CBA IC50 cluster
Sequence (Q9NZQ7 19-290): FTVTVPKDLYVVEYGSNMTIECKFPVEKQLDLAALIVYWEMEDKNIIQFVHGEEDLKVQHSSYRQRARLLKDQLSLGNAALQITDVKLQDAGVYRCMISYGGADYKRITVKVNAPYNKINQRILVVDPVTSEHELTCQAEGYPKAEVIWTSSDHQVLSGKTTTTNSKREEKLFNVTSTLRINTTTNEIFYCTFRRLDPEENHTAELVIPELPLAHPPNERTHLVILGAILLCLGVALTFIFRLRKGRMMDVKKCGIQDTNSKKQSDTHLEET
Positions of bridges follow the written chain, without caps; N, C: chain ends. Non-standard residues stand in square brackets, D forms with d. Residues, ends and D or L forms follow the SMILES beside them. Phe(4-NH2) = Nc1ccc(C[C@H](N)C(=O)O)cc1; NMeF = CN[C@@H](Cc1ccccc1)C(=O)O; NMeNle = CCCC[C@H](NC)C(=O)O; Sar = CNCC(=O)O
Reported metric: IC50

Record CCCC[C@H]1C(=O)N(C)CC(=O)N[C@@H](CC(=O)O)C(=O)N[C@@H](C(C)C)C(=O)N(C)[C@@H](Cc2ccccc2)C(=O)N[C@@H](Cc2ccc(N)cc2)C(=O)N(C)CC(=O)N[C@@H](Cc2c[nH]c3ccccc23)C(=O)N[C@@H](Cc2ccc(O)cc2)C(=O)N[C@@H](CC(C)C)C(=O)N[C@H](C(=O)NCC(N)=O)CSCC(=O)N[C@@H](Cc2ccccc2)C(=O)N(C)[C@@H](Cc2ccccc2)C(=O)N1C [Example 3139] ({CH2CO}-F[NMeF][NMeNle][Sar]DV[NMeF][Phe(4-NH2)][Sar]WYLCG-NH2; thioether N-13) has LK35.2-hPD-L1 cells / PE-labeled PD-1-Ig (Homo sapiens) IC50 equal to 4.78 to 72.9 nM

---

molecular target: Human PD-L1/PD-1 (Homo sapiens); construct: made in house; host or cells: HEK293T; assay: HTRF PD-1-Ig/PD-L1-His binding assay (human PD-L1); conditions: cluster symbol; read-out: HTRF IC50 cluster
pIC50: −log10 of the molar value. Positions of bridges follow the written chain, without caps; N, C: chain ends. Non-standard residues stand in square brackets, D forms with d. Residues, ends and D or L forms follow the SMILES beside them. Phe(4-Br) = N[C@@H](Cc1ccc(Br)cc1)C(=O)O; NMeF = CN[C@@H](Cc1ccccc1)C(=O)O; NMeNle = CCCC[C@H](NC)C(=O)O; NMeA = CN[C@@H](C)C(=O)O; Sar = CNCC(=O)O
For each entry below, report its pIC50 value.

# pIC50 (molecule: CCCC[C@H]1C(=O)N(C)CC(=O)N[C@@H](CC(=O)O)C(=O)N[C@@H](C(C)C)C(=O)N(C)[C@@H](Cc2ccccc2)C(=O)N[C@@H](Cc2ccc(O)cc2)C(=O)N(C)CC(=O)N[C@@H](Cc2c[nH]c3ccccc23)C(=O)N[C@@H](Cc2ccc(O)cc2)C(=O)N[C@@H](CC(C)C)C(=O)N[C@H](C(=O)NCC(N)=O)CSCC(=O)N[C@@H](Cc2ccc(Br)cc2)C(=O)N(C)[C@@H](Cc2ccccc2)C(=O)N1C [Example 3081] ({CH2CO}-[Phe(4-Br)][NMeF][NMeNle][Sar]DV[NMeF]Y[Sar]WYLCG-NH2; thioether N-13) ) is < 7.52

# pIC50 (molecule: CCCC[C@H]1C(=O)N(C)[C@@H](CCCC)C(=O)N[C@@H](CCCNC(=N)N)C(=O)N[C@H](C(=O)NCC(N)=O)CSCC(=O)N[C@@H](Cc2ccccc2)C(=O)N(C)[C@@H](C)C(=O)N[C@@H](CC(N)=O)C(=O)N2CCC[C@H]2C(=O)N[C@@H](CCCCN)C(=O)N[C@@H](CC(C)C)C(=O)N(C)CC(=O)N[C@@H](Cc2c[nH]c3ccccc23)C(=O)N[C@@H](CO)C(=O)N[C@@H](Cc2c[nH]c3ccccc23)C(=O)N1C [Example 1077] ({CH2CO}-F[NMeA]NPKL[Sar]WSW[NMeNle][NMeNle]RCG-NH2; thioether N-14) ) is 7.52 to 8.17

---

For each entry below, report its IC50 value.
target: Human PD-L1/PD-1 (Homo sapiens, UniProt Q9NZQ7); construct: made in house; host or cells: HEK293T; assay: HTRF PD-1-Ig/PD-L1-His binding assay (human PD-L1); conditions: cluster symbol; read-out: HTRF IC50 cluster
Sequence (Q9NZQ7 with tags, fused parts or gaps): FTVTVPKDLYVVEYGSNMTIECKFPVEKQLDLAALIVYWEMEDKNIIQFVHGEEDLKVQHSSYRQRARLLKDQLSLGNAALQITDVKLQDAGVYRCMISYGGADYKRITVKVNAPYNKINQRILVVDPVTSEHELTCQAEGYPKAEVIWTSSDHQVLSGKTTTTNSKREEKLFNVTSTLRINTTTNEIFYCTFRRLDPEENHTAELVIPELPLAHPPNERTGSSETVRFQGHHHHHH
Positions of bridges follow the written chain, without caps; N, C: chain ends. Non-standard residues stand in square brackets, D forms with d. Residues, ends and D or L forms follow the SMILES beside them. ξ: configuration not given here. Phe(2-OMe) = COc1ccccc1C[C@H](N)C(=O)O; Bta = N[C@@H](Cc1csc2ccccc12)C(=O)O; Hyp = O=C(O)[C@@H]1C[C@@H](O)CN1; dNMeNle = CCCC[C@@H](NC)C(=O)O; NMeNle = CCCC[C@H](NC)C(=O)O; Pip = O=C(O)[C@@H]1CCCCN1; NMeA = CN[C@@H](C)C(=O)O; Orn = NCCC[C@H](N)C(=O)O; dDap = NC[C@@H](N)C(=O)O; Dab = NCC[C@H](N)C(=O)O; Dap = NC[C@H](N)C(=O)O; ξP = O=C(O)C1CCCN1; ξC = NC(CS)C(=O)O; Sar = CNCC(=O)O

# IC50 (compound: CCCC[C@H]1C(=O)N(C)[C@@H](CCCC)C(=O)N[C@@H](CCCNC(=N)N)C(=O)N[C@H](C(=O)NCC(N)=O)CSCC(=O)N[C@@H](Cc2ccc(O)cc2)C(=O)N2CCCC[C@H]2C(=O)N[C@@H](CC(N)=O)C(=O)N2CCC[C@H]2C(=O)N[C@@H](CN)C(=O)N[C@@H](CC(C)C)C(=O)N2C[C@H](O)C[C@H]2C(=O)N[C@@H](Cc2c[nH]c3ccccc23)C(=O)N[C@@H](CO)C(=O)N[C@@H](Cc2c[nH]c3ccccc23)C(=O)N1C [Example 1236] ({CH2CO}-Y[Pip]NP[Dap]L[Hyp]WSW[NMeNle][NMeNle]RCG-NH2; thioether N-14) ) is 6.76 to 30.3 nM

# IC50 (compound: CCCC[C@H]1C(=O)N(C)[C@@H](CCCC)C(=O)N[C@@H](CCCNC(=N)N)C(=O)N[C@H](C(=O)NCC(N)=O)CSCC(=O)N[C@@H](Cc2ccccc2)C(=O)N(C)[C@@H](C)C(=O)N[C@@H](CC(N)=O)C(=O)N2CCC[C@H]2C(=O)N[C@@H](Cc2cnc[nH]2)C(=O)N[C@@H](CC(C)C)C(=O)N2CCCC[C@H]2C(=O)N[C@@H](Cc2c[nH]c3ccccc23)C(=O)N[C@@H](CO)C(=O)N[C@@H](Cc2c[nH]c3ccccc23)C(=O)N1C [Example 1196] ({CH2CO}-F[NMeA]NPHL[Pip]WSW[NMeNle][NMeNle]RCG-NH2; thioether N-14) ) is > 30.5 nM

# IC50 (compound: CCCC[C@@H]1C(=O)N(C)[C@H](CCCC)C(=O)N[C@@H](CCCN)C(=O)N[C@@H](C(=O)NCC(N)=O)CSCC(=O)N[C@@H](Cc2ccc(O)cc2)C(=O)N2CCCC2C(=O)N[C@H](CC(=O)O)C(=O)N2CCC[C@H]2C(=O)N[C@H](CN)C(=O)N[C@@H](CCC(=O)O)C(=O)N2CCCC2C(=O)N[C@H](Cc2c[nH]c3ccccc23)C(=O)N[C@@H](CCN)C(=O)N[C@@H](Cc2c[nH]c3ccccc23)C(=O)N1C (some centres unmarked) [Example 1214] ({CH2CO}-Y[ξP][dD]P[dDap]E[ξP][dW][Dab]W[dNMeNle][dNMeNle][Orn][dC]G-NH2; thioether N-14) ) is 6.76 to 30.3 nM

# IC50 (compound: CCCC[C@H]1C(=O)N(C)[C@@H](CCCC)C(=O)N[C@@H](CCCNC(=N)N)C(=O)N[C@H](C(=O)NCC(N)=O)CSCC(=O)N[C@@H](Cc2ccccc2)C(=O)N(C)[C@@H](C)C(=O)N[C@@H](CC(N)=O)C(=O)N2CCC[C@H]2C(=O)N[C@@H](Cc2cnc[nH]2)C(=O)N[C@@H](CC(C)C)C(=O)N(C)CC(=O)N[C@@H](Cc2c[nH]c3ccccc23)C(=O)N[C@@H](CCCCN)C(=O)N[C@@H](Cc2c[nH]c3ccccc23)C(=O)N1C [Example 1069] ({CH2CO}-F[NMeA]NPHL[Sar]WKW[NMeNle][NMeNle]RCG-NH2; thioether N-14) ) is 0.385 to 6.74 nM

# IC50 (compound: CCCC[C@H]1C(=O)N(C)[C@@H](CCCC)C(=O)N[C@@H](CCCNC(=N)N)C(=O)N[C@H](C(=O)NCC(N)=O)CSCC(=O)N[C@@H](Cc2ccccc2OC)C(=O)N(C)[C@@H](C)C(=O)N[C@@H](CC(N)=O)C(=O)N2CCC[C@H]2C(=O)N[C@@H](Cc2cnc[nH]2)C(=O)N[C@@H](CC(C)C)C(=O)N2CCC[C@H]2C(=O)N[C@@H](Cc2c[nH]c3ccccc23)C(=O)N[C@@H](CO)C(=O)N[C@@H](Cc2c[nH]c3ccccc23)C(=O)N1C [Example 7017] ({CH2CO}-[Phe(2-OMe)][NMeA]NPHLPWSW[NMeNle][NMeNle]RCG-NH2; thioether N-14) ) is 0.385 to 6.74 nM

# IC50 (compound: CCCC[C@H]1C(=O)N(C)[C@@H](CCCC)C(=O)N[C@@H](CCCNC(=N)N)C(=O)NC(C(=O)NCC(N)=O)CSCC(=O)N[C@@H](Cc2ccc(O)cc2)C(=O)N(C)[C@@H](C)C(=O)N[C@@H](CC(N)=O)C(=O)N2CCC[C@H]2C(=O)N[C@@H](Cc2cnc[nH]2)C(=O)N[C@@H](CC(C)C)C(=O)N2[C@@H](C)CC[C@H]2C(=O)N[C@@H](Cc2c[nH]c3ccccc23)C(=O)N[C@@H](CO)C(=O)N[C@@H](Cc2c[nH]c3ccccc23)C(=O)N1C (some centres unmarked) ) is 0.385 to 6.74 nM

# IC50 (compound: CCCC[C@H]1C(=O)N[C@@H](CCCNC(=N)N)C(=O)NC(C(=O)NCC(N)=O)CSCC(=O)N[C@@H](Cc2ccc(O)cc2)C(=O)N(C)[C@@H](C)C(=O)N[C@@H](CC(N)=O)C(=O)N2CCC[C@H]2C(=O)N[C@@H](Cc2cnc[nH]2)C(=O)N[C@@H](CC(C)C)C(=O)N2C[C@H](O)C[C@H]2C(=O)N[C@@H](Cc2c[nH]c3ccccc23)C(=O)N[C@@H](CO)C(=O)N[C@@H](Cc2csc3ccccc23)C(=O)N(C)[C@@H](C)C(=O)N1C (some centres unmarked) [Example 9056] ({CH2CO}-Y[NMeA]NPHL[Hyp]WS[Bta][NMeA][NMeNle]R[ξC]G-NH2; thioether N-14) ) is 0.385 to 6.74 nM

# IC50 (compound: CCCC[C@H]1C(=O)N(C)[C@@H](CCCC)C(=O)N[C@@H](CCCNC(=N)N)C(=O)NC(C(=O)N[C@@H](CO)C(N)=O)CSCC(=O)N[C@@H](Cc2ccc(O)cc2)C(=O)N(C)[C@@H](C)C(=O)N[C@@H](CC(N)=O)C(=O)N2CCC[C@H]2C(=O)N[C@@H](Cc2cnc[nH]2)C(=O)N[C@@H](CO)C(=O)N2CCC[C@H]2C(=O)N[C@@H](Cc2c[nH]c3ccccc23)C(=O)N[C@@H](CO)C(=O)N[C@@H](Cc2csc3ccccc23)C(=O)N1C (some centres unmarked) [Example 9076] ({CH2CO}-Y[NMeA]NPHSPWS[Bta][NMeNle][NMeNle]R[ξC]S-NH2; thioether N-14) ) is 0.385 to 6.74 nM
